biological target: human recombinant hERG (Homo sapiens (Human)); experiment: hERG radioligand (3H-astemizole) binding assay
Sequence (Q12809 whole entry, looked up): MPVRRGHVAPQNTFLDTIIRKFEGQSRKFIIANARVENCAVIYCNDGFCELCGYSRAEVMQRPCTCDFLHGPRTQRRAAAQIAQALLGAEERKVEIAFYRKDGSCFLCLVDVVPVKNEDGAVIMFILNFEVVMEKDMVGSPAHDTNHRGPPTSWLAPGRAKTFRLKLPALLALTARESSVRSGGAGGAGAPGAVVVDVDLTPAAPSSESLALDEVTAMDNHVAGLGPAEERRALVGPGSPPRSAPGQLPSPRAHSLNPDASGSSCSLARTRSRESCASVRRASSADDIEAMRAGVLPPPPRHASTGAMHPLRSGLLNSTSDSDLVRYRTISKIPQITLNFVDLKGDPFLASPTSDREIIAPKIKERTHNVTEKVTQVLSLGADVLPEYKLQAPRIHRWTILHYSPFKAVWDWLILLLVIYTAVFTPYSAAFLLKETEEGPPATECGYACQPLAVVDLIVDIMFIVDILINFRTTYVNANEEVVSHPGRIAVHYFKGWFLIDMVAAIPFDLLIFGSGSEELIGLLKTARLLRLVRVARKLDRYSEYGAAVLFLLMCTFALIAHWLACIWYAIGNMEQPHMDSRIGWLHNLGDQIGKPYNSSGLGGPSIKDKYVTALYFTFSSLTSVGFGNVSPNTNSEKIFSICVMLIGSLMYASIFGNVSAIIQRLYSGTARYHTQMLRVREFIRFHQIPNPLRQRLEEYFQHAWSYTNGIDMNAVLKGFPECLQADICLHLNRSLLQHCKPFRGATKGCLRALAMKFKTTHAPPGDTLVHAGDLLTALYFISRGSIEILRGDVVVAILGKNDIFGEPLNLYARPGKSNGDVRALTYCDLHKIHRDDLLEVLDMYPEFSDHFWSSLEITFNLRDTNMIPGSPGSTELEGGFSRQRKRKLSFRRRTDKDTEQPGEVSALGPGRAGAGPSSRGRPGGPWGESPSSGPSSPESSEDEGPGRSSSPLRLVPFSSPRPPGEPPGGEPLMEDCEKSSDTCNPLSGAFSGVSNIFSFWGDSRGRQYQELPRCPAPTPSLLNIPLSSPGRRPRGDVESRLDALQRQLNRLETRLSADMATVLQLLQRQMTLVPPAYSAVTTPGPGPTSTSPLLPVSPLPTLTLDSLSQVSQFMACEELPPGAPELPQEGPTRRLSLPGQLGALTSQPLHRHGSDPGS
Metric name: IC50 (µM)
Form entry: value (µM) — number only.

Consider the worked cases shown below.
1. [2H]C([2H])(Oc1ccc2c(c1)[C@]13CCCC[C@@H]1[C@H](C2)N(C([2H])([2H])[2H])CC3)C(F)F [CNS1-D5] :: 34.5
2. COc1ccc2c(c1)[C@]13CCCC[C@@H]1[C@H](C2)N(C)CC3 [Dextromethorphan (DM), reference compound] :: 49.1
3. [2H]C([2H])(Oc1ccc2c(c1)[C@]13CCCC[C@@H]1[C@H](C2)N(CCOC)CC3)C(F)F [CNS27-D2] :: 22.3

Query molecule follows.
Recorded result, [2H]C([2H])(Oc1ccc2c(c1)[C@]13CCCC[C@@H]1[C@H](C2)NCC3)C(F)F [N-desmethyl CNS1-D2] , IC50: 26.6

* * *

Reported IC50 values follow for various molecules
target: phencyclidine site of NMDA-type glutamate receptors; experiment: NMDA receptor (phencyclidine site) radioligand binding inhibition

Consider the worked cases shown below.
1) CN1CC[C@@]23CCCC[C@@H]2[C@@H]1Cc1ccc(O)c(Br)c13 :: > 30 µM
2) Cc1ccc2c(c1)[C@]13CCCC[C@@H]1[C@H](C2)N(C)CC3 [Dimemorphan (DIM), reference compound] :: > 30 µM
3) CN1CC[C@@]23CCCC[C@@H]2[C@@H]1Cc1ccc(O)cc13 [Dextorphan (DX), reference compound] :: 1.53 µM

Form field IC50 for item CN1CC[C@@]23CCCCC2C1Cc1ccc(OCC(F)F)c(Br)c13 (stereo partly drawn) [CNS6-A1-D2] on phencyclidine site of NMDA-type glutamate receptors: > 30 µM

Form field IC50 for item [2H]C([2H])(Oc1ccc2c(c1)[C@]13CCCC[C@@H]1[C@H](C2)N(C)CC3)C(F)F [CNS1-D2] on phencyclidine site of NMDA-type glutamate receptors: > 30 µM

Form field IC50 for item COc1ccc2c(c1)[C@]13CCCC[C@@H]1[C@H](C2)N(C)CC3 [Dextromethorphan (DM), reference compound] on phencyclidine site of NMDA-type glutamate receptors: 6.82 µM

* * *

IC50, κ opioid receptor (Homo sapiens (Human), UniProt P41145), per-entry values.
Form entry: value (µM) — number only.

1. [2H]C([2H])(Oc1ccc2c(c1)[C@]13CCCC[C@@H]1[C@H](C2)N(CCOC)CC3)C(F)F [CNS27-D2] :: 28.8
2. [2H]C([2H])(Oc1ccc2c(c1)[C@]13CCCC[C@@H]1[C@H](C2)N(C([2H])([2H])[2H])CC3)C(F)F :: 29.8

Query compound follows.
Form field IC50 for item [2H]C([2H])(Oc1ccc2c(c1)[C@]13CCCC[C@@H]1[C@H](C2)NCC3)C(F)F [N-desmethyl CNS1-D2] on κ opioid receptor (Homo sapiens (Human), UniProt P41145): 37.7

* * *

target: sigma-1 receptors (Homo sapiens (Human)); assay: biochemical; type: binding; details: inhibition of radioligand binding; read-out: Sigma-1 Ki
pKi: −log10 of the molar value.
# class assignment by measured pKi: 1 (below 7), 2 (7 to below 8), 3 (8 or more)

Reference set (4 entries):
1. CN1CC[C@@]23CCCC[C@@H]2[C@@H]1Cc1ccc(O)cc13 [Dextorphan (DX), reference compound] :: 1
2. [2H]C([2H])(Oc1ccc2c(c1)[C@]13CCCC[C@@H]1[C@H](C2)N(C)CC3)C(F)F [CNS1-D2] :: 2
3. Cc1ccc2c(c1)[C@]13CCCC[C@@H]1[C@H](C2)N(C)CC3 [Dimemorphan (DIM), reference compound] :: 1
4. [2H]C([2H])(Oc1ccc2c(c1)[C@]13CCCC[C@@H]1[C@H](C2)N(C([2H])([2H])[2H])CC3)C(F)F :: 2

Continue with the next compound.
Band assignment needed for [2H]C([2H])(Oc1ccc2c(c1)[C@]13CCCC[C@@H]1[C@H](C2)N(CCOC)CC3)C(F)F [CNS27-D2] please. 3

* * *

Reported Ki values follow for various compounds
molecular target: sigma-1 receptors (Homo sapiens (Human), UniProt Q99720); test: biochemical; type: binding
Sequence (Q99720 whole entry, looked up): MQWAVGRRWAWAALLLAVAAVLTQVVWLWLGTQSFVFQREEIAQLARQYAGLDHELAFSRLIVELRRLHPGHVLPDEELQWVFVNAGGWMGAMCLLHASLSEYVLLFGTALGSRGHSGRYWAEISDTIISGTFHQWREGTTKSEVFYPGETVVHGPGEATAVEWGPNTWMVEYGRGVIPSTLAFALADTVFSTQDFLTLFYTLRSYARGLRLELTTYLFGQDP
Form entry: value (nM) — number only.

1. COc1ccc2c(c1)[C@]13CCCC[C@@H]1[C@H](C2)N(C)CC3 [Dextromethorphan (DM), reference compound] :: 96.3

Query compound follows.
Recorded result, C=CCN(C)CC[C@@]12CCCC[C@@H]1C=Cc1ccc(OC)cc12 , Ki: 20.5

* * *

target: sigma-1 receptors (Homo sapiens (Human), UniProt Q99720); test: biochemical; type: binding; settings: inhibition of radioligand binding; read-out: Sigma-1 IC50
pIC50: −log10 of the molar value.
Each entry gets FALSE if its pIC50 stays under 7, and TRUE if its pIC50 is 7 or above.

1. COc1ccc2c(c1Br)[C@]13CCCCC1[C@H](C2)N(C)CC3 (some centres unmarked) [CNS6-A2] :: FALSE
2. [2H]C([2H])(Oc1ccc2c(c1)[C@]13CCCC[C@@H]1[C@H](C2)N(C)CC3)C(F)F [CNS1-D2] :: TRUE

Quick check, pIC50 >= 7? CN1CC[C@@]23CCCC[C@@H]2[C@@H]1Cc1ccc(O)cc13 [Dextorphan (DX), reference compound] FALSE

Quick check, pIC50 >= 7? CN1CC[C@@]23CCCCC2C1Cc1ccc(OCC(F)F)c(Br)c13 (some centres unmarked) [CNS6-A1-D2] TRUE

Quick check, pIC50 >= 7? [2H]C([2H])(Oc1ccc2c(c1)[C@]1(CCN(C)CC=C)CCCC[C@@H]1C=C2)C(F)F [CNS23-D2] TRUE

Quick check, pIC50 >= 7? CN1CC[C@@]23CCCC[C@@H]2[C@@H]1Cc1ccc(O)c(Br)c13 [CNS6] FALSE

Quick check, pIC50 >= 7? Cc1ccc2c(c1)[C@]13CCCC[C@@H]1[C@H](C2)N(C)CC3 [Dimemorphan (DIM), reference compound] FALSE

Quick check, pIC50 >= 7? CN1CC[C@@]23CCCC[C@@H]2[C@@H]1Cc1ccc(OCC(F)(F)F)cc13 [CNS-222] TRUE

* * *

pKi, μ opioid receptor (Homo sapiens (Human)), per-entry values.
# reply with the number alone; pKi is -log10 of concentration in mol/L

Recorded result, [2H]C([2H])(Oc1ccc2c(c1)[C@]13CCCC[C@@H]1[C@H](C2)NCC3)C(F)F [N-desmethyl CNS1-D2] , pKi: 4.58

Recorded result, [2H]C([2H])(Oc1ccc2c(c1)[C@]13CCCC[C@@H]1[C@H](C2)N(CCOC)CC3)C(F)F [CNS27-D2] , pKi: 4.64

Recorded result, COc1ccc2c(c1)[C@]13CCCC[C@@H]1[C@H](C2)N(C)CC3 [Dextromethorphan (DM), reference compound] , pKi: 5.02

Recorded result, [2H]C([2H])(Oc1ccc2c(c1)[C@]13CCCC[C@@H]1[C@H](C2)N(C([2H])([2H])[2H])CC3)C(F)F [CNS1-D5] , pKi: 5.00

* * *

test: Caco-2 bidirectional permeability assay; assay type: in vitro ADME; conditions: human, 0.1 μM, basolateral to apical
Reported Papp B→A at 0.1 μM values follow for various compounds
Form entry: value (×10⁻⁶ cm/s) — number only.

Consider the worked cases shown below.
1) [2H]C([2H])(Oc1ccc2c(c1)[C@]13CCCC[C@@H]1[C@H](C2)N(CCOC)CC3)C(F)F [CNS27-D2] :: 9.76
2) COc1ccc2c(c1)[C@]13CCCC[C@@H]1[C@H](C2)N(C)CC3 [Dextromethorphan (DM), reference compound] :: 10.8
3) [2H]C([2H])(Oc1ccc2c(c1)[C@]13CCCC[C@@H]1[C@H](C2)NCC3)C(F)F [N-desmethyl CNS1-D2] :: 6.33

Query compound follows.
Recorded result, [2H]C([2H])(Oc1ccc2c(c1)[C@]13CCCC[C@@H]1[C@H](C2)N(C([2H])([2H])[2H])CC3)C(F)F [CNS1-D5] , Papp B→A at 0.1 μM: 12.5

* * *

target: μ opioid receptor (Homo sapiens (Human), UniProt P35372)
Metric name: pIC50
# reply with the number alone; pIC50 is -log10 of concentration in mol/L

Consider the worked cases shown below.
1. COc1ccc2c(c1)[C@]13CCCC[C@@H]1[C@H](C2)N(C)CC3 [Dextromethorphan (DM), reference compound] :: 4.29
2. [2H]C([2H])(Oc1ccc2c(c1)[C@]13CCCC[C@@H]1[C@H](C2)N(C([2H])([2H])[2H])CC3)C(F)F :: 4.26
3. [2H]C([2H])(Oc1ccc2c(c1)[C@]13CCCC[C@@H]1[C@H](C2)N(CCOC)CC3)C(F)F [CNS27-D2] :: 3.91

Query molecule follows.
Recorded result, [2H]C([2H])(Oc1ccc2c(c1)[C@]13CCCC[C@@H]1[C@H](C2)NCC3)C(F)F [N-desmethyl CNS1-D2] , pIC50: 3.85

Data provenance is patent US11535596B2.
